assay: Tmax in po dosed healthy human; type: ADME, organism-based; conditions: in vivo

compound	Tmax
CNC(=O)[C@@H](c1ccccc1)N1CCc2cc(OC)c(OC)cc2[C@@H]1CCc1ccc(C(F)(F)F)cc1 [ALMOREXANT]	48 min

----------
test system: Homo sapiens; assay: AUC (0 to infinity) in healthy human treated with [14C]almorexant at 200 mg, po dosed as single dose; assay type: ADME, organism-based, Plasma; design: dose 200 mg, route oral, time infinity; settings: in vivo
measuredAttribute: AUC (ng·h/mL)

molecularString	measuredAttribute	unitDescriptor	measured
COc1cc2c(cc1OC)[C@H](CCc1ccc(C(F)(F)F)cc1)NCC2	AUC	ng·h/mL	1039
CNC(=O)[C@@H](c1ccccc1)N1CCc2cc(O)c(OC)cc2[C@@H]1CCc1ccc(C(F)(F)F)cc1	AUC	ng·h/mL	160
CNC(=O)[C@@H](c1ccccc1)[n+]1ccc2cc(OC)c(OC)cc2c1CCc1ccc(C(F)(F)F)cc1	AUC	ng·h/mL	282
CNC(=O)[C@@H](c1ccccc1)N1CCc2cc(OC)c(O)cc2[C@@H]1CCc1ccc(C(F)(F)F)cc1	AUC	ng·h/mL	386
